# Tested on: SW48 cells
# method_summary: Proliferation assay SW48 (CellTiterGlo, 96 hours)
# condition_details: read-out: Proliferation Assay SW48 (GI50); SW48 cell line; geometric means of at least 2 determinations
readout_kind: GI50 (nM)

Here are 3 molecules together with their reported answers.
>>> quantitative_readout("CCc1c(N2CCN(C(=O)c3ncnc(C)c3O)[C@@H](C)[C@H]2C)c(=O)n2nc(C3=CCOCC3)nc2n1CC(=O)Nc1ccc(C(F)(F)F)cc1Cl (single isomer, unassigned)")
1740
>>> quantitative_readout("CCc1c(N2CCN(C(=O)c3ncccc3O)CC2)c(=O)n2nc(C3=CC[C@H](OC)CC3)nc2n1CC(=O)Nc1ccc(C(F)(F)F)cc1 (single isomer, unassigned) [Example 81a]")
70
>>> quantitative_readout("CCc1c(N2CCN(C(=O)c3ncccc3O)CC2)c(=O)n2nc(N3CCC[C@@H](F)C3)nc2n1CC(=O)Nc1ccc(C(F)(F)F)cc1Cl (single isomer, unassigned) [Example 15b]")
360

A = CCc1c(N2CCN(C(=O)c3ncccc3O)CC2)c(=O)n2nc(N3CCC[C@@H](F)C3)nc2n1CC(=O)Nc1ccc(C(F)(F)F)cc1Cl (single isomer, unassigned) [Example 15a]
B = CCc1c(N2CCN(C(=O)c3ncccc3O)CC2)c(=O)n2nc(C3=CC[C@H](OC)CC3)nc2n1CC(=O)Nc1ccc(C(F)(F)F)cc1C (single isomer, unassigned) [Example 80a]
Request: Would you mind telling me which has the lower recorded GI50 between A and B ? Please identify the chosen entry by its label.
Response: B
(B: 70 nM, A: 400 nM)

* * *

# test_target: WRN helicase (Homo sapiens (Human), UniProt Q14191)
# Sequence (Q14191 517-1238): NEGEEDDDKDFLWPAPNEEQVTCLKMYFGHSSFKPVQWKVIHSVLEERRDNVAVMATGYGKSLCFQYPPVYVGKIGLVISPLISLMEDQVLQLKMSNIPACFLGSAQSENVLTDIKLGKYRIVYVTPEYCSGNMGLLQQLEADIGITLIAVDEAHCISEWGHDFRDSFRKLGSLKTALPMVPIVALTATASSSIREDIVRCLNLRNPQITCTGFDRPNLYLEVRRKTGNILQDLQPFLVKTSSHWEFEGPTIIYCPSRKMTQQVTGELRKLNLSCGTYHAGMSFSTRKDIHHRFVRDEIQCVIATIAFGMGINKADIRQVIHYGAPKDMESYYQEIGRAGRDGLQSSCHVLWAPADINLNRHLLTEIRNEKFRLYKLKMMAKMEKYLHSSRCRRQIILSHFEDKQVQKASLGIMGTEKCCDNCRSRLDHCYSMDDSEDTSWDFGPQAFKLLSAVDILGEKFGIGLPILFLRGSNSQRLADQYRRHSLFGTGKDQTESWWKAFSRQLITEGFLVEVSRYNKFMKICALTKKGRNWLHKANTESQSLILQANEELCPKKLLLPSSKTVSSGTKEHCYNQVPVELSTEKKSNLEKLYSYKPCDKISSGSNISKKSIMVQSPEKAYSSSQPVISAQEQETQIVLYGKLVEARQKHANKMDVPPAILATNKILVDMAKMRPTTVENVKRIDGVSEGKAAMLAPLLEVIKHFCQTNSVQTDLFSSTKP
# method_summary: In vitro enzymatic activity assay on WRN helicase (DNA dependent ATPase assay, ADP-Glo)
# Assay type: biochemical
# condition_details: geometric means of at least 2 determinations; read-out: WRN ATPase Activity (IC50)
pIC50: −log10 of the molar value.
readout_kind: pIC50

Guide cases for pIC50, answers given:
>>> quantitative_readout("CCc1c(N2CCN(C(=O)c3ncccc3O)CC2)c(=O)n2nc(C3=CCOCC3)nc2n1CC(=O)Nc1ccc(C(F)(F)F)c(F)c1C")
7.40
>>> quantitative_readout("CCc1c(N2CCN(C(=O)c3nccc(Cl)c3O)CC2)c(=O)n2nc(C3=CC[C@H](OC)CC3)nc2n1CC(=O)Nc1ccc(C(F)(F)F)nc1Cl (single isomer, unassigned) [Example 24a]")
6.96

I = Cc1c(C2CCN(C(=O)c3ncccc3O)CC2)c(=O)n2nc(C3=CCOCC3)nc2n1CC(=O)Nc1ccc(C(F)(F)F)cc1
II = CCc1c(N2CCN(C(=O)c3nccc(Cl)c3O)CC2)c(=O)n2nc(C3=CCOCC3)nc2n1CC(=O)Nc1cc(F)c(C(F)(F)F)cc1C
III = CCc1c(N2CCN(C(=O)c3ncccc3O)CC2)c(=O)n2nc(C3=CCC(F)CN3)nc2n1CC(=O)Nc1ccc(C(F)(F)F)cc1C (racemic)
Request: Arrange these compounds by their pIC50, starting with the largest number. Your answer should be the labels, listed in the requested order.
Response: II, I, III
(II: 7.30, I: 7.10, III: 6.48)

* * *

# test_target: WRN helicase (Homo sapiens (Human), UniProt Q14191)
# method_summary: In vitro enzymatic activity assay on WRN helicase (DNA dependent ATPase assay, ADP-Glo)
# Type: biochemical
# condition_details: geometric means of at least 2 determinations; read-out: WRN ATPase Activity (IC50)
pIC50: −log10 of the molar value.
readout_kind: pIC50

// worked examples, pIC50 included
>>> quantitative_readout("CCc1c(N2CCN(C(=O)c3nccc(OC(F)(F)F)c3O)CC2)c(=O)n2nc(C3=CCOCC3)nc2n1CC(=O)Nc1ccc(C(F)(F)F)cc1Cl")
7.40
>>> quantitative_readout("CCc1c(N2CCN(C(=O)c3ncnc(C)c3O)[C@H](C)C2)c(=O)n2nc(C3=CCOCC3)nc2n1CC(=O)Nc1ccc(C(F)(F)F)cc1Cl")
7.05
>>> quantitative_readout("CCc1c(N2CCN(C(=O)c3ncccc3O)CC2)c(=O)n2nc(C3=CC(=O)OCC3)nc2n1CC(=O)Nc1ccc(C(F)(F)F)cc1C")
6.62

A = Cc1c(N2CCN(C(=O)c3ncccc3O)CC2)c(=O)n2nc(C3=CCN(C(=O)OC(C)(C)C)CC3)nc2n1CC(=O)Nc1ccc(C(F)(F)F)cc1
B = CCc1c(N2CCN(C(=O)c3ncccc3O)CC2)c(=O)n2nc(N3C[C@@H](F)[C@@H](F)C3)nc2n1CC(=O)Nc1ccc(C(F)(F)F)cc1C
Request: Which shows the larger pIC50 value: A or B ? Choose, then provide that item's label.
Response: A
(A: 6.89, B: 6.59)

I = CCc1c(N2CCN(C(=O)c3ncncc3O)CC2)c(=O)n2nc(C3=CCOCC3)nc2n1CC(=O)Nc1ccc(C(F)(F)F)cc1Cl
II = CCc1c(N2CCN(C(=O)c3ncccc3O)CC2)c(=O)n2nc(C3=CCOCC3)nc2n1CC(=O)Nc1cc(F)c(C(F)(F)F)cc1C
III = CCc1c(N2CCN(C(=O)c3ncccc3O)CC2)c(=O)n2nc(N3CCC(N(C)CC(F)F)CC3)nc2n1CC(=O)Nc1ccc(C(F)(F)F)nc1Cl
Request: Place the items in sequence of falling pIC50. Returns: the labels arranged in the requested order.
Response: II, I, III
(II: 7.40, I: 6.96, III: 6.51)

a = Cc1cc(C(F)(F)F)ccc1NC(=O)Cn1c(CCO)c(N2CCN(C(=O)c3ncccc3O)CC2)c(=O)n2nc(C3=CCOCC3)nc12
b = CCc1c(N2CCN(C(=O)c3ncccc3O)CC2)c(=O)n2nc(C3=CC[C@H](OC)CC3)nc2n1CC(=O)Nc1ccc(C(F)(F)F)cc1 (single isomer, unassigned) [Example 81b]
Request: Could you please tell me which of these two has the higher pIC50: a or b ? In your reply, give the label of the chosen option.
Response: b

* * *

# test_target: WRN helicase (Homo sapiens (Human), UniProt Q14191)
# method_summary: In vitro enzymatic activity assay on WRN helicase (DNA dependent ATPase assay, ADP-Glo)
# Format: biochemical
# condition_details: geometric means of at least 2 determinations; read-out: WRN ATPase Activity (IC50)
pIC50: −log10 of the molar value.
readout_kind: pIC50

>>> quantitative_readout("CCc1c(N2C[C@@H](C)N(C(=O)c3ncnc(C)c3O)C[C@@H]2C)c(=O)n2nc(C3=CCOCC3)nc2n1CC(=O)Nc1ccc(C(F)(F)F)cc1Cl")
7.05
>>> quantitative_readout("CCc1c(N2CCN(C(=O)c3ncnc(C)c3O)CC2)c(=O)n2nc(C3=CC[C@H](F)CO3)nc2n1CC(=O)Nc1ccc(C(F)(F)F)cc1Cl")
7.10
>>> quantitative_readout("CCc1c(N2CCN(C(=O)c3ncccc3O)CC2)c(=O)n2nc(C3=CCCCO3)nc2n1CC(=O)Nc1ccc(C(F)(F)F)nc1Cl")
7.05

1 = Cc1cc(Cl)ccc1NC(=O)Cn1c(C)c(N2CCN(C(=O)c3ncccc3O)CC2)c(=O)n2nc(C3=CCOCC3)nc12
2 = CCc1c(N2CCN(C(=O)c3ncccc3O)CC2)c(=O)n2nc(N3CCOCC3)nc2n1CC(=O)Nc1ccc(C(F)(F)F)cc1C
3 = CCc1c(N2CCN(C(=O)c3nccc(Cl)c3O)CC2)c(=O)n2nc(C3=CCOCC3)nc2n1CC(=O)Nc1ccc(C(F)(F)F)cc1Cl
Request: Please give the order of these compounds when sorted by pIC50, largest value leading. Output spec: labels arranged per the requested ranking.
Response: 3, 2, 1
(3: 7.40, 2: 7.10, 1: 6.70)

* * *

# Tested on: SW48 cells
# method_summary: Proliferation assay SW48 (CellTiterGlo, 96 hours)
# condition_details: read-out: Proliferation Assay SW48 (GI50); SW48 cell line; geometric means of at least 2 determinations
readout_kind: GI50 (nM)

Example entries begin here.
>>> quantitative_readout("CCc1c(N2CCN(C(=O)c3ncccc3O)CC2)c(=O)n2nc(C3=CC[C@H](OC)CC3)nc2n1CC(=O)Nc1ccc(C(F)(F)F)cc1C (single isomer, unassigned) [Example 80b]")
60
>>> quantitative_readout("CCc1c(N2CCN(C(=O)c3ncccc3O)CC2)c(=O)n2nc(C3=CC[C@H](OC)CC3)nc2n1CC(=O)Nc1ccc(C(F)(F)F)nc1Cl (single isomer, unassigned) [Example 25b]")
50

I = CCc1c(N2CCN(C(=O)c3ncccc3O)CC2)c(=O)n2nc(C3=CC[C@H](OC)CC3)nc2n1CC(=O)Nc1ccc(C(F)(F)F)nc1Cl (single isomer, unassigned) [Example 25a]
II = CCc1c(N2CCN(C(=O)c3ncnc(C)c3O)[C@@H]3CC[C@@H]32)c(=O)n2nc(C3=CCOCC3)nc2n1CC(=O)Nc1ccc(C(F)(F)F)cc1Cl (single isomer, unassigned) [Example 132]
Request: Higher GI50 between I and II ? Give the label under which the chosen entry appears.
Response: II
(II: 490 nM, I: 50 nM)
